Attribution: the supplement of paper PMC9170038

# Test system: K4 kissing-loop RNA reporter
# Test Method Notes: apparent KD of K4 kissing-loop reporter; higher = weaker reporter binding
# Settings: Eterna round: R107; input ligand: none
Quantity: apparent KD of K4 kissing-loop reporter (nM)
Your answer should be a plain number; it is taken to be in nM.

>>> print(df.to_string())
                              item_sequence  endpoint_result
0  UGGACCUGACUCGAUAAGAGUCAAGGAGAUACCAGCCACGAAAGUGGCCCUUGGCAGCUCUGCCAGUGAUGUUGGUCAAGGUCCU [#SwitchBubble 7 #StaticStem]              912

Now consider a different sequence.
// query Write down apparent KD of K4 kissing-loop reporter measured for item GCGUGGCAGGCGGCCGCCACUCGGACGAGUCACAGUGAUGUUGUGGUUUGCCAGUCGUCUUCAUCGAGGACCGGGUUUGUUGCGC [Exclusion Tryptophan B GF 18]
// result 212

====

# Tested on: K4 kissing-loop RNA reporter;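 note: bound reporter read as fluorescence of individual clusters on recovered sequencing chips by microscopy, with normalized cluster intensities fitted with a binding model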
# Test Method Notes: apparent KD of K4 kissing-loop reporter; higher = weaker reporter binding
# Settings: Eterna round: R107; input ligand: none
Quantity: apparent KD of K4 kissing-loop reporter (nM)
Record the value in nM, omitting the unit from your answer.

In [3]: df
Out[3]:
                              item_sequence  endpoint_result
0  GCCGCCGCGGCAGGAUAUAGACAUUGAGUGAUGUUCGGUGCUUAUCCAAAGUGCUGUUUCGGCCAACUAGAAGGGCCGCGGCGGC              119
1  CGUUUAUAGCAGGAUACCAGUACCCAUAAAGUACGUUAAUAGUAGAGUGAUGUUCUAAAGUACCCUUGGCAGCUUAGAGUGAGUG [ExTheophylB.Q]              117
2  AACACUCAGAGAGUGAUGUUCUCUAAUAAACGAGGACCGGUACGGCCGCCACUCGAAUAAGAGUGAGUCCUACGAAAAGUAGGAC [Omei inspired 5 #OpenEnded]             1050

// query Supply measured apparent KD of K4 kissing-loop reporter of GAUUGUGAUGGAAACAUCGCAAUCUCUGAAGGAGCGCGUGAAAACGCAGGUAGGUCGCAGGACGACAAAGACAGUGAUGUUGUCA [Ex Arginine A K4 1] in your reply.
// result 311

// query # return recorded apparent KD of K4 kissing-loop reporter for input ACCUAGUAGACAGGAUAUCACGAUGACAGUGAUGUUGUCAUCAUCGAUUUGAGGAAACUCAGAUCGUGAGAAGGGUCUAACGACU [FMN B SS t7a]
// result 204

// query Complete the entry with apparent KD of K4 kissing-loop reporter for GUCUGUGUACUAGGAUAUGGUUGCAGACAGUCAGGUCGCCUUUUCGGCGGCCAGUGAUGUUGGUGGCCAGAAGGAGUACGUGAAG [Biririge]
// result 1110

====

Measured apparent KD of MS2 coat protein of individual entries
# System: MS2 coat protein
# Test Method Notes: apparent KD of MS2 coat protein; higher = weaker reporter binding
# Settings: Eterna round: R107; input ligand: arginine 13.2 mM
Supply the numeric figure in nM, leaving out any unit text.

Use the examples below as a reference point.
Item Sequence	Tested Target	apparent KD of MS2 coat protein [nM]
AUGGCGUUGGUGUAGCUGUGAAAUGGCGAUACCAGCGUGGAAACACGCCCUUGGCAGCGCCAAAACAUGAGGAUCACCCAUGUUA [Hradec]	MS2 coat protein	16.6
UAUAUAUAUAUUGAUACCAGCAGAGAAAACGUUUAUCCUAACAUGAGGAUCACCCAUGUAUGCCCUUGGCAGCGAUAUAUAUAUA [8.C]	MS2 coat protein	22.2
CGUGUGCGUUCUGAUACCAGAGACAUGAGGAUCACCCAUGUCCGAUCGUCCUGCCUCAGACUCCCUUGGCAGCAGGUUUUGUGCU [Exclusion Theophylline B GF4]	MS2 coat protein	29.5
CUGCCAUGCAGAGAUACCAGUGAGCUCAAAACAUGAGGAUCACCCAUGUAAAUUGCCGAUCACCCUUGGCAGCUCUGCAUGGCAG [}=%#^]	MS2 coat protein	13.7
ACUAGUUGUGCAGAUACCAGACAUGAGGAUCACCCAUGUUUGGGAUCUAAUGAUCAUCUUGUCCCUUGGCAGCUGUACAUCUAGA [Omei Theo B Exc v1]	MS2 coat protein	27.1

Now turn to the next sequence.
// query For MS2 coat protein, give apparent KD of MS2 coat protein of the listed sequence: AAUAAUAAGGCGGCCGCCACUAAACAUGAGGAUCACCCAUGUCUCGAGCGCUUGCGUUUGGGAAGUAGGACCGGGCCAAUAAUAA [Exclusion - Tryptophan B (Freestyle 5)]
// result 14.2
